molecular target: Cdc25B (Homo sapiens); assay: Cdc25B phosphatase inhibition (50 μM screen, 3 pt. and 8 pt. IC-50); type: biochemical; settings: Cdc25B; 8 pt. IC-50 using 0.1–10 μM; read-out: IC50 (8 pt)
PARAMETER MEASURED: IC50 (µM)
Respond with the bare value in µM.

Past entries and their recorded results:
O=C1C=C(O)C(=O)C(c2c(C3CC3)[nH]c3ccccc23)=C1O [2E]	24.4
O=C1C=C(O)C(=O)C(c2c[nH]c3cccc(Cl)c23)=C1O [3E]	8.4
O=C1C=C(O)C(=O)C(c2c[nH]c3ccccc23)=C1O [2A]	16.5
Cc1ccccc1Cc1cccc2c(C3=C(O)C(=O)C=C(O)C3=O)c[nH]c12 [6F]	1.1
CC(C)=CCC/C(C)=C/Cc1cccc2c(C3=C(O)C(=O)C=C(O)C3=O)c[nH]c12 [6C]	0.5
O=C1C=C(O)C(=O)C(c2c[nH]c3cc(F)ccc23)=C1O [5A]	6.8
O=C1C=C(O)C(=O)C(c2c[nH]c3cccc(F)c23)=C1O [3D]	15.9

Note: attention shifts to another entry.
Which IC50 value is on record for CC(C)=CCCC(C)=CCCC(C)=CCc1cccc2c(C3=C(O)C(=O)C=C(O)C3=O)c[nH]c12 [6D] ?
0.5

----------
Molecular target: Cdc25B (Homo sapiens, UniProt P30305)
Sequence (P30305 whole entry, species assumed): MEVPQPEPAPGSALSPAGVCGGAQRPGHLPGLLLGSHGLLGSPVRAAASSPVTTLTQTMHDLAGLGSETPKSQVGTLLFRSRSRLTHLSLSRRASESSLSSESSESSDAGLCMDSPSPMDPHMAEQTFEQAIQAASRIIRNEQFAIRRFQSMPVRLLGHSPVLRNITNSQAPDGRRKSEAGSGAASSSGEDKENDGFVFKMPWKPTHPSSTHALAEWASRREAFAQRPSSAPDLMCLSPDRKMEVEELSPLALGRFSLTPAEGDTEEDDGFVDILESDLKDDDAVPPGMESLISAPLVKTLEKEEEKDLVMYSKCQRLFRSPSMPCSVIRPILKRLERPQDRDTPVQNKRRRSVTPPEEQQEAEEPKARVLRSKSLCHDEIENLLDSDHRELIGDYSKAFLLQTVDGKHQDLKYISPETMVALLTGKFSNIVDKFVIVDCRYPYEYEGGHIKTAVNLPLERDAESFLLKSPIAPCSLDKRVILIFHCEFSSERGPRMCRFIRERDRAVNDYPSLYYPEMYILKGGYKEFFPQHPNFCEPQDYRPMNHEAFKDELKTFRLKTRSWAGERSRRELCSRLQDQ
Test: Cdc25B phosphatase inhibition (50 μM screen, 3 pt. and 8 pt. IC-50)
Type: biochemical
Conditions: Cdc25B; 3 pt. IC-50 using 1, 7 and 50 μM; read-out: IC50 (3 pt)
Experimental: Using procedures known to those skilled in the art, the compounds listed in Table 3 were screened against Cdc25A, Cdc25B, and Cdc25C at 50 μM. […] To analyze these effects further, the compounds were then screened against Cdc25B in a 3 pt. IC-50, using 1, 7 and 50 μM. Several of the compounds were also screened with an 8 pt. IC-50 process, using 0.1–10 μM, allowing determination of Hill slopes.
PARAMETER MEASURED: IC50 (µM)
Respond with the bare value in µM.

Past entries and their recorded results:
Cc1[nH]c2ccccc2c1C1=C(O)C(=O)c2cccc(O)c2C1=O [11D]	18
Cn1cc(C2=C(O)C(=O)C(c3c(C(C)(C)C)[nH]c4ccccc34)=C(O)C2=O)c2ccccc21	12
O=C1C=C(O)C(=O)C(c2c[nH]c3c(-c4ccccc4)cccc23)=C1O	1.4
CC(C)=CCCC(C)=CCCC(C)=CCc1cccc2c(C3=C(O)C(=O)C=C(O)C3=O)c[nH]c12	0.1
CC(C)(C)c1[nH]c2ccccc2c1C1=C(Cl)C(=O)C(c2c[nH]c3c(C(C)(C)C)cccc23)=C(O)C1=O	5.8
Cc1cccc2c(C3=C(O)C(=O)C(c4c(C(C)(C)C)[nH]c5ccccc45)=C(O)C3=O)c[nH]c12 [10E]	4.8
Cc1[nH]c2ccccc2c1C1=C(O)C(=O)C(c2c(C)[nH]c3ccccc23)=C(O)C1=O [11C]	15.7

Note: attention shifts to another entry.
Which IC50 value is on record for CC(C)(C)c1[nH]c2ccccc2c1C1=C(O)C(=O)C=C(O)C1=O ?
13.9

----------
Measured inhibition at 50 µM, listed per entry.
biological target: Cdc25C (Homo sapiens, UniProt P30307); assay: Cdc25C phosphatase inhibition screen at 50 μM; format: biochemical; details: read-out: Percent Inhibition at 50 uM compound, Cdc25 C
Sequence (P30307 whole entry, species assumed): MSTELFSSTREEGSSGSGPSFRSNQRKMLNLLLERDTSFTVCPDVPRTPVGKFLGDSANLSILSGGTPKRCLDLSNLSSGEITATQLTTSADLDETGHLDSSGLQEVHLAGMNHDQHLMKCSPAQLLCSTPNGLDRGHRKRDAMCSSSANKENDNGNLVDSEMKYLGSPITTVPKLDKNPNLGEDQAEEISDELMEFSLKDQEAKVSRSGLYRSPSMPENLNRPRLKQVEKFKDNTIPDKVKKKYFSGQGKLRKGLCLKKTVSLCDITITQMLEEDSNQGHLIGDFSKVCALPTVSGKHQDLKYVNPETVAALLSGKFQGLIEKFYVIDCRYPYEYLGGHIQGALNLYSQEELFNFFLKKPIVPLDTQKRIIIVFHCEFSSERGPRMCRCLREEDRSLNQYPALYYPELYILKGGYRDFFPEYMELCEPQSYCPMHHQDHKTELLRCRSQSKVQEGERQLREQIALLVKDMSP
Respond with the bare value in %.

Cc1cccc2c(C3=C(O)C(=O)C=C(O)C3=O)c[nH]c12 [5H]	1

// map O=C1C=C(O)C(=O)C(c2c[nH]c3cc(OCc4ccccc4)ccc23)=C1O [5C] to recorded inhibition at 50 µM (system: Cdc25C (Homo sapiens, UniProt P30307))
92

// map O=C1C=C(O)C(=O)C(c2c[nH]c3c(OCc4ccccc4)cccc23)=C1O [7B] to recorded inhibition at 50 µM (system: Cdc25C (Homo sapiens, UniProt P30307))
85

// map O=C1C=C(O)C(=O)C(c2c[nH]c3c(-c4ccccc4)cccc23)=C1O [6H] to recorded inhibition at 50 µM (system: Cdc25C (Homo sapiens, UniProt P30307))
91

// map O=C1C=C(O)C(=O)C(c2c[nH]c3cccc(Cl)c23)=C1O [3E] to recorded inhibition at 50 µM (system: Cdc25C (Homo sapiens, UniProt P30307))
0

The values you see were collected from patent US7057052B2.
